- Test system: DLD-1
- Method description: NCI tumour cell line growth inhibition, 48 h
Calls of active or inactive are those of the source. Cut-off read from the data, not from the text of the source: active = GI50 up to about 1.1 µM and inactive = higher.
Reported GI50 values follow for various compounds

[
  {
    "Compound": "CC12CCC(=O)N1[C@@H](c1ccccc1)[C@@H](c1ccccc1)O2 (some centres undefined)",
    "GI50": "44 µM (inactive)"
  },
  {
    "Compound": "C[Si](C)(C)CN1C(=O)c2ccccc2C1(O)c1ccccc1 (centres undefined)",
    "GI50": "> 100 µM (inactive)"
  },
  {
    "Compound": "COc1cc2c(cc1OC)/C(=C\\c1ccccc1N)C(=O)OC2",
    "GI50": "15 µM (inactive)"
  },
  {
    "Compound": "COc1cc2c(cc1OC)C(=O)Cc1ccc(OC)c(OC)c1CN(C)CC2",
    "GI50": "> 100 µM (inactive)"
  }
]
